Tested on: A498
Assay: Cytotoxicity against human A498 cells assessed as growth inhibition at 10 uM after 48 hrs by SRB assay
Format: functional
Conditions: A498, 48 h, read-out: GI
inhibition of growth at 10 µM vs 40%: at or above is T, below is F.

COc1cc(NC(=O)CSc2nc3ccc(C)cc3c(=O)n2-c2ccccc2)cc(OC)c1OC    F
COc1cc(NC(=O)CSc2nc3ccc(Cl)cc3c(=O)n2-c2ccccc2)cc(OC)c1OC    T
COc1cc(NC(=O)CCSc2nc3ccccc3c(=O)n2-c2ccc(F)cc2)cc(OC)c1OC    F
COc1cc(NC(=O)CSc2nc3ccccc3c(=O)n2-c2ccccc2)cc(OC)c1OC    T
COc1cc(NC(=O)CCSc2nc3ccccc3c(=O)n2-c2ccccc2)cc(OC)c1OC    T
COc1cc(NC(=O)CCSc2nc3ccc(Cl)cc3c(=O)n2-c2ccccc2)cc(OC)c1OC    F
COc1cc(NC(=O)CCSc2nc3ccc(C)cc3c(=O)n2-c2ccccc2)cc(OC)c1OC    T
COc1cc(NC(=O)CSc2nc3ccccc3c(=O)n2-c2ccc(F)cc2)cc(OC)c1OC    T

Next item in the queue.
Hello, I need to know if `COc1cc(NC(=O)CCSc2nc3ccc(Cl)cc3c(=O)n2-c2ccc(F)cc2)cc(OC)c1OC` has measured inhibition of growth at 10 µM not below 40%. Thanks! T

* * *

System: NCI-H522
Assay: Cytotoxicity against human NCI-H522 cells assessed as growth inhibition at 10 uM after 48 hrs by SRB assay
Format: functional
Details: NCI-H522, 48 h, read-out: GI
Listed here: items and their measured inhibition of growth at 10 µM.
Please respond with the number in % and leave the unit unwritten.

COc1cc(NC(=O)CSc2nc3ccc(Cl)cc3c(=O)n2-c2ccccc2)cc(OC)c1OC    16
COc1cc(NC(=O)CSc2nc3ccccc3c(=O)n2-c2ccc(F)cc2)cc(OC)c1OC    19
COc1cc(NC(=O)CCSc2nc3ccc(Cl)cc3c(=O)n2-c2ccc(F)cc2)cc(OC)c1OC    55
COc1cc(NC(=O)CSc2nc3ccc(Cl)cc3c(=O)n2-c2ccc(F)cc2)cc(OC)c1OC    21
COc1cc(NC(=O)CCSc2nc3ccc(C)cc3c(=O)n2-c2ccccc2)cc(OC)c1OC    80

Kindly consider the entry below.
Any idea what its inhibition of growth at 10 µM is? The compound is `COc1cc(NC(=O)CSc2nc3ccc(C)cc3c(=O)n2-c2ccccc2)cc(OC)c1OC` 32

* * *

Assay: Cytotoxicity against human Hs 578T cells assessed as growth inhibition at 10 uM after 48 hrs by SRB assay
Assay type: functional
Conditions: read-out: GI
inhibition of growth at 10 µM vs 30%: at or above is Criterion met, below is Criterion not met.

Worked examples, 6 compounds total:
COc1cc(NC(=O)CCSc2nc3ccc(C)cc3c(=O)n2-c2ccccc2)cc(OC)c1OC    Criterion not met
COc1cc(NC(=O)CCSc2nc3ccc(Cl)cc3c(=O)n2-c2ccc(F)cc2)cc(OC)c1OC    Criterion met
COc1cc(NC(=O)CSc2nc3ccccc3c(=O)n2-c2ccc(F)cc2)cc(OC)c1OC    Criterion not met
COc1cc2nc(SCC(=O)Nc3cc(OC)c(OC)c(OC)c3)n(-c3ccccc3)c(=O)c2cc1OC    Criterion met
COc1cc(NC(=O)CSc2nc3ccccc3c(=O)n2-c2ccccc2)cc(OC)c1OC    Criterion not met
COc1cc(NC(=O)CSc2nc3ccc(Cl)cc3c(=O)n2-c2ccccc2)cc(OC)c1OC    Criterion not met

Hello, I need to know if `COc1cc(NC(=O)CSc2nc3ccc(Cl)cc3c(=O)n2-c2ccc(F)cc2)cc(OC)c1OC` has measured inhibition of growth at 10 µM not below 30%. Thanks! Criterion not met

* * *

Test system: MDA-MB-231
Assay: Cytotoxicity against human MDA-MB-231 cells assessed as growth inhibition at 10 uM after 48 hrs by SRB assay
Format: functional
Details: MDA-MB-231, 48 h, read-out: GI
readout.kind: inhibition of growth at 10 µM (%)
Please respond with the number in % and leave the unit unwritten.

Some molecules with recorded inhibition of growth at 10 µM:
COc1cc(NC(=O)CSc2nc3ccc(Cl)cc3c(=O)n2-c2ccccc2)cc(OC)c1OC    17
COc1cc2nc(SCC(=O)Nc3cc(OC)c(OC)c(OC)c3)n(-c3ccccc3)c(=O)c2cc1OC    16

Any idea what its inhibition of growth at 10 µM is? The molecule is `COc1cc(NC(=O)CSc2nc3ccccc3c(=O)n2-c2ccc(F)cc2)cc(OC)c1OC` 24

* * *

Listed here: items and their measured inhibition of growth at 10 µM.
Experiment: Cytotoxicity against human HOP92 cells assessed as growth inhibition at 10 uM after 48 hrs by SRB assay
Type: functional
Conditions: HOP-92, 48 h, read-out: GI
Please respond with the number in % and leave the unit unwritten.

COc1cc(NC(=O)CSc2nc3ccc(C)cc3c(=O)n2-c2ccccc2)cc(OC)c1OC    51
COc1cc(NC(=O)CSc2nc3ccc(Cl)cc3c(=O)n2-c2ccc(F)cc2)cc(OC)c1OC    64

Any idea what its inhibition of growth at 10 µM is? The molecule is `COc1cc2nc(SCCC(=O)Nc3cc(OC)c(OC)c(OC)c3)n(-c3ccc(F)cc3)c(=O)c2cc1OC` 13

Any idea what its inhibition of growth at 10 µM is? The molecule is `COc1cc(NC(=O)CCSc2nc3ccc(C)cc3c(=O)n2-c2ccccc2)cc(OC)c1OC` 40

Any idea what its inhibition of growth at 10 µM is? The molecule is `COc1cc(NC(=O)CCSc2nc3ccccc3c(=O)n2-c2ccc(F)cc2)cc(OC)c1OC` 103

Any idea what its inhibition of growth at 10 µM is? The molecule is `COc1cc(NC(=O)CSc2nc3ccccc3c(=O)n2-c2ccc(F)cc2)cc(OC)c1OC` 43

Any idea what its inhibition of growth at 10 µM is? The molecule is `COc1cc2nc(SCC(=O)Nc3cc(OC)c(OC)c(OC)c3)n(-c3ccccc3)c(=O)c2cc1OC` 32

* * *

Assay: Cytotoxicity against human SF295 cells assessed as growth inhibition at 10 uM after 48 hrs by SRB assay
Format: functional
Conditions: SF-295, 48 h, read-out: GI
inhibition of growth at 10 µM vs 20%: at or above is Condition met, below is Condition not met.

Worked examples, 5 molecules total:
COc1cc(NC(=O)CCSc2nc3ccc(Cl)cc3c(=O)n2-c2ccc(F)cc2)cc(OC)c1OC    Condition met
COc1cc(NC(=O)CSc2nc3ccc(Cl)cc3c(=O)n2-c2ccccc2)cc(OC)c1OC    Condition not met
COc1cc(NC(=O)CCSc2nc3ccccc3c(=O)n2-c2ccccc2)cc(OC)c1OC    Condition not met
COc1cc(NC(=O)CCSc2nc3ccccc3c(=O)n2-c2ccc(F)cc2)cc(OC)c1OC    Condition met
COc1cc(NC(=O)CCSc2nc3ccc(C)cc3c(=O)n2-c2ccccc2)cc(OC)c1OC    Condition not met

Next item in the queue.
Hello, I need to know if `COc1cc2nc(SCC(=O)Nc3cc(OC)c(OC)c(OC)c3)n(-c3ccccc3)c(=O)c2cc1OC` has measured inhibition of growth at 10 µM not below 20%. Thanks! Condition not met

* * *

Listed here: items and their measured inhibition of growth at 10 µM.
System: SN12C
Test: Cytotoxicity against human SN12C cells assessed as growth inhibition at 10 uM after 48 hrs by SRB assay
Type: functional
Settings: read-out: GI
Please respond with the number in % and leave the unit unwritten.

Some compounds with recorded inhibition of growth at 10 µM:
COc1cc(NC(=O)CCSc2nc3ccccc3c(=O)n2-c2ccc(F)cc2)cc(OC)c1OC    20
COc1cc(NC(=O)CSc2nc3ccc(Cl)cc3c(=O)n2-c2ccc(F)cc2)cc(OC)c1OC    22
COc1cc(NC(=O)CCSc2nc3ccccc3c(=O)n2-c2ccccc2)cc(OC)c1OC    18
COc1cc(NC(=O)CCSc2nc3ccc(C)cc3c(=O)n2-c2ccccc2)cc(OC)c1OC    17
COc1cc(NC(=O)CCSc2nc3ccc(Cl)cc3c(=O)n2-c2ccc(F)cc2)cc(OC)c1OC    18

Form: Entry = `COc1cc2nc(SCC(=O)Nc3cc(OC)c(OC)c(OC)c3)n(-c3ccccc3)c(=O)c2cc1OC` | System = SN12C | inhibition of growth at 10 µM = ____ 11

* * *

Test system: NCI-H226
Test: Cytotoxicity against human NCI-H226 cells assessed as growth inhibition at 10 uM after 48 hrs by SRB assay
Type: functional
Details: NCI-H226, 48 h, read-out: GI
Listed here: items and their measured inhibition of growth at 10 µM.
Please respond with the number in % and leave the unit unwritten.

COc1cc(NC(=O)CCSc2nc3ccccc3c(=O)n2-c2ccc(F)cc2)cc(OC)c1OC    38
COc1cc(NC(=O)CSc2nc3ccccc3c(=O)n2-c2ccccc2)cc(OC)c1OC    23
COc1cc(NC(=O)CSc2nc3ccc(C)cc3c(=O)n2-c2ccccc2)cc(OC)c1OC    18
COc1cc(NC(=O)CSc2nc3ccc(Cl)cc3c(=O)n2-c2ccc(F)cc2)cc(OC)c1OC    17

Kindly consider the entry below.
Any idea what its inhibition of growth at 10 µM is? The compound is `COc1cc(NC(=O)CCSc2nc3ccc(Cl)cc3c(=O)n2-c2ccc(F)cc2)cc(OC)c1OC` 18
